# test_name: inhibitors of hydroxyurea-induced Chk1 phosphorylation, primary screen, imaging, HeLa, phospho-Chk1 nuclear intensity (AID 1187); further: test concentration not given here
# condition_context: hydroxyurea-induced phospho-Chk1 immunofluorescence imaging, higher = more signal
Calls of active or inactive are those of the source. How the calls were made is not given here.
value_kind: z-score

Past entries and their recorded results:
compound=COCCOC(=O)N1C(=O)[C@@]2(c3ccccc31)[C@H](C(=O)N1CCCCCCC1)[C@H]1C(=O)O[C@H](c3ccccc3)[C@H](c3ccccc3)N1[C@@H]2c1ccc(O)cc1 reported_measurement="-0.586 (inactive)"
compound=COCCOC(=O)N1C(=O)[C@@]2(c3cc(C#CC4(O)CCCCCC4)ccc31)[C@H](C(=O)NC[C@H](O)c1ccccc1)[C@H]1C(=O)O[C@H](c3ccccc3)[C@H](c3ccccc3)N1[C@@H]2c1ccc(O)cc1 reported_measurement="0.487 (inactive)"

*Q* # get_value(readout='z-score', item= O=C1C2C=CC(C(O)C(c3ccccc3)c3ccccc3)N(Nc3ccccc3)C2C(=O)N1c1ccccc1 (configuration not stated) )
*A* -0.706 (inactive)

*Q* Fill in the blank: the reported z-score of CC(C)C[C@H]1NC(=O)[C@@H](C)NC(=O)[C@@]23C(=O)N[C@@H](Cc4ccccc4)C2[C@H](C)[C@@]2(C)O[C@H]2C3/C=C/C/C=C\CNC1=O (some centres not stated) is ____.
*A* 0.0218 (inactive)

*Q* Which z-score value is on record for CC(C)N1CC=CC23O[C@@H]4C=CCCOC(=O)C4[C@H]2C(=O)N(CCCCCO)[C@@H]3C1=O (some centres not stated) ?
*A* 0.0936 (inactive)

*Q* Returns the measured z-score for the input compound. Input: COCCOC(=O)N1C(=O)[C@@]2(c3cc(C#CC4(O)CCCCCC4)ccc31)[C@H](c1ccc(OCCO)cc1)N1[C@H](c3ccccc3)[C@H](c3ccccc3)OC(=O)[C@H]1[C@@H]2C(N)=O
*A* -0.215 (inactive)

*Q* Field request: z-score | item: COc1cc2c(cc1O)C(C1CC1)N(Cc1ccc([N+](=O)[O-])o1)CC2 (configuration not stated)
*A* 0.125 (inactive)

*Q* Would you kindly share the measured z-score for CC[C@H](C)C(=O)O[C@H]1CC[C@]2(C)C3=C(CCC2C1(C)C)[C@]1(C)CC[C@H]([C@H](C)CCCC(C)C)[C@@]1(C)CC3 (some centres not stated) ?
*A* -0.829 (inactive)

Values were extracted from PubChem BioAssay.
